Quick list: koff per entry.
- target under test: T1, human α-CGRP 1-37 (WT) (human, C-terminal amide; N-terminal biotin when captured on the SA chip; 125I-labelled in the radioligand assay)
- T1 construct: also called α-human
- T1 peptide: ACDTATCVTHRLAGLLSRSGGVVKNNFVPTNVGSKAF
- measurement notes: Biacore, 37°C, Fab over CGRP on SA chip
Unit s⁻¹ implied. Number only.

Example entries and their recorded answers appear below.
# binder, measurement unit, koff
data = [
    ("G1 variant M45 Fab (Fab, V domains shown, Fab; constant domains as m1) VH: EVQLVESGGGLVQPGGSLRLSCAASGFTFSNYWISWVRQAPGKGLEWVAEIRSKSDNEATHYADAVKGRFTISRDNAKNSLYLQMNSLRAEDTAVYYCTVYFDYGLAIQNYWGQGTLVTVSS VL: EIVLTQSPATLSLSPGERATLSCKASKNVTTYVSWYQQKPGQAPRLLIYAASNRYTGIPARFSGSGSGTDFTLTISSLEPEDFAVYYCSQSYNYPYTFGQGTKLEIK", "s⁻¹", 0.000211),
    ("G1 variant M5 Fab (Fab, V domains shown, Fab; constant domains as m1) VH: EVQLVESGGGLVQPGGSLRLSCAASGFTFSNYWISWVRQAPGKGLEWVAEIRSESDASATHYAEAVKGRFTISRDNAKNSLYLQMNSLRAEDTAVYYCAYYFDYGLAIQNYWGQGTLVTVSS VL: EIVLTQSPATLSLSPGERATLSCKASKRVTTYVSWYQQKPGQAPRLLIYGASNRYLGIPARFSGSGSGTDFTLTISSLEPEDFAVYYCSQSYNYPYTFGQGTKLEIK", "s⁻¹", "3.22e-05"),
]

Request: Consider the binder G1 variant M57 Fab (Fab, V domains shown, Fab; constant domains as m1) VH: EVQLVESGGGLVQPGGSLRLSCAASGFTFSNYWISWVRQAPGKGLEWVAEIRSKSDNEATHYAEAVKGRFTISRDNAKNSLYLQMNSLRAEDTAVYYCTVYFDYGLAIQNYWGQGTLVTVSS VL: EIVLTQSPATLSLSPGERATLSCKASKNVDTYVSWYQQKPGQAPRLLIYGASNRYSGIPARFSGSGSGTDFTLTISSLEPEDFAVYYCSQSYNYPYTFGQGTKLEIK . State its measured koff.
Response: 0.000322

FYI, the data here is from patent US20190071490A1.
